molecular target: Transient receptor potential cation channel subfamily A member 1 (Rattus norvegicus) (UniProt Q6RI86); test: Agonist activity at rat TRPA1 expressed in HEK293 cells assessed as induction of intracellular calcium level relative to allyl isothiocyanate; type: cell-based
Sequence (Q6RI86 whole entry): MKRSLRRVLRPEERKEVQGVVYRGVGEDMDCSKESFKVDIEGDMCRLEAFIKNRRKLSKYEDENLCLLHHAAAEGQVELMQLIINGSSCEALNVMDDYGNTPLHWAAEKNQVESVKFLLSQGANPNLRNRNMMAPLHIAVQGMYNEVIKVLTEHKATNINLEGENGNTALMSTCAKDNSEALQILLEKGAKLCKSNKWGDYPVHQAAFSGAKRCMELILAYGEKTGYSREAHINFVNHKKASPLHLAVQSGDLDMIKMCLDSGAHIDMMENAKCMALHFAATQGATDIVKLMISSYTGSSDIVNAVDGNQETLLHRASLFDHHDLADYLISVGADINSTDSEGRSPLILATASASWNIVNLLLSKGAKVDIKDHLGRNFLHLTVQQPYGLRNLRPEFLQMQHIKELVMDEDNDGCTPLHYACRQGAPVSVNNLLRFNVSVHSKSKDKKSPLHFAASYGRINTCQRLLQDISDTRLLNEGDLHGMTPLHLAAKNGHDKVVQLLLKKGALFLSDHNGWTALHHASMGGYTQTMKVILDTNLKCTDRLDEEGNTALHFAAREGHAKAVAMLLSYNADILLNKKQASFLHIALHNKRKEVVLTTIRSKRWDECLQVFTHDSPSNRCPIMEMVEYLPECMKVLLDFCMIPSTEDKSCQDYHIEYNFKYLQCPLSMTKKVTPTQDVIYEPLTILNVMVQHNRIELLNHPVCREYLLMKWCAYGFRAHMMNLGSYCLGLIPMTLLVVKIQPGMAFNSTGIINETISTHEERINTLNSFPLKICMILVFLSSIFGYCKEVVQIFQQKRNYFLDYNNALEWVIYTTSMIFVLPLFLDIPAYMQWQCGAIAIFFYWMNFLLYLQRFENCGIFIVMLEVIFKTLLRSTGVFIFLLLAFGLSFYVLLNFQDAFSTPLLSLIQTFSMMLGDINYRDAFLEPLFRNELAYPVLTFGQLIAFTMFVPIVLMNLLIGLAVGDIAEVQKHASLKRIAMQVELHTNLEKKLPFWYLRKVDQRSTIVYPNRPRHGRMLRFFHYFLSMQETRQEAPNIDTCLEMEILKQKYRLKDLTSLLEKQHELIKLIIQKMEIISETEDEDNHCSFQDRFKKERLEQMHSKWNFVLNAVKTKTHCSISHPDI
Labelling field: enter class 1 if recorded Efficacy is less than 80%. Enter class 0 if it equals or exceeds that cut-off.

{"compound": "Oc1ccc(/C=C/c2cc(O)cc(O)c2)cc1", "groupLabel": "class 1"}
{"compound": "COc1ccc(/C=C/c2ccc(O)cc2)cc1", "groupLabel": "class 1"}
{"compound": "CC(=O)Oc1ccc(/C=C/c2cc(OC(C)=O)cc(OC(C)=O)c2)cc1", "groupLabel": "class 0"}
{"compound": "CC(=O)Oc1ccccc1/C=C/c1ccccc1", "groupLabel": "class 0"}

Query compound follows.
# strict comparison: is reported Efficacy < 80%? input = `COc1ccc(/C=C/c2cc(OC)cc(OC)c2)cc1`
class 1

====

target: Transient receptor potential cation channel subfamily A member 1 (Rattus norvegicus, UniProt Q6RI86); experiment: Agonist activity at rat TRPA1 expressed in HEK293 cells assessed as induction of intracellular calcium level
Sequence (Q6RI86 whole entry): as the sequence (Q6RI86 whole entry) above
assayMetric: log10(EC50) (log10 of the value in µM)
Lab note - EC50 converted to log10 from values in µM.

Worked set:
{"molecule": "Oc1ccc(/C=C/c2cccc(O)c2)cc1 [(E)-3,4'-STILBENDIOL]", "log10(EC50)": 1.13}
{"molecule": "CC(=O)Oc1ccc(/C=C/c2ccccc2)cc1", "log10(EC50)": 1.21}
{"molecule": "COc1cc(/C=C/c2ccc(O)cc2)cc(OC)c1 [PTEROSTILBENE]", "log10(EC50)": 0.56}
{"molecule": "Oc1ccc(/C=C/c2ccccc2)cc1 [(E)-4-STYRYLPHENOL]", "log10(EC50)": 0.92}
{"molecule": "COc1cccc(/C=C/c2ccccc2)c1", "log10(EC50)": 0.23}
{"molecule": "Oc1ccccc1/C=C/c1ccccc1", "log10(EC50)": -0.24}

Batch request: log10(EC50) for each of the following molecules.
1. CC(=O)Oc1ccc(/C=C/c2cc(OC(C)=O)cc(OC(C)=O)c2)cc1 [TRIACETYLRESVERATROL]
2. COc1ccc(/C=C/c2ccccc2)cc1
3. COc1cccc(/C=C/c2ccc(O)cc2)c1 [(E)-5-METHOXY-4'-STILBENOL]

0.88
0.38
0.82

Batch request: log10(EC50) for each of the following molecules.
1. COc1ccc(/C=C/c2cc(OC)cc(OC)c2)cc1 [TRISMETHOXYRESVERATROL]
2. Oc1cccc(/C=C/c2ccccc2)c1 [(E)-3-STILBENOL]

1: 0.23; 2: 0.26

Batch request: log10(EC50) for each of the following molecules.
1. COc1ccc(/C=C/c2cccc(OC)c2)cc1
2. COc1ccccc1/C=C/c1ccccc1
3. COc1cc(O)cc(/C=C/c2ccccc2)c1 [PINOSYLVIN METHYL ETHER]
4. COc1cc(/C=C/c2ccccc2)cc(OC)c1 [3,5-O-DIMETHYLPINOSYLVIN]
5. CC(=O)Oc1ccccc1/C=C/c1ccccc1

[0.18, -0.06, 0.54, 0.23, 0.86]

====

target: Transient receptor potential cation channel subfamily V member 1 (Homo sapiens, UniProt Q8NER1); assay: Antagonist activity at human TRPV1 expressed in HEK293 cells assessed as inhibition of capsaicin-induced increase of intracellular calcium level; format: cell-based
Sequence (Q8NER1 whole entry): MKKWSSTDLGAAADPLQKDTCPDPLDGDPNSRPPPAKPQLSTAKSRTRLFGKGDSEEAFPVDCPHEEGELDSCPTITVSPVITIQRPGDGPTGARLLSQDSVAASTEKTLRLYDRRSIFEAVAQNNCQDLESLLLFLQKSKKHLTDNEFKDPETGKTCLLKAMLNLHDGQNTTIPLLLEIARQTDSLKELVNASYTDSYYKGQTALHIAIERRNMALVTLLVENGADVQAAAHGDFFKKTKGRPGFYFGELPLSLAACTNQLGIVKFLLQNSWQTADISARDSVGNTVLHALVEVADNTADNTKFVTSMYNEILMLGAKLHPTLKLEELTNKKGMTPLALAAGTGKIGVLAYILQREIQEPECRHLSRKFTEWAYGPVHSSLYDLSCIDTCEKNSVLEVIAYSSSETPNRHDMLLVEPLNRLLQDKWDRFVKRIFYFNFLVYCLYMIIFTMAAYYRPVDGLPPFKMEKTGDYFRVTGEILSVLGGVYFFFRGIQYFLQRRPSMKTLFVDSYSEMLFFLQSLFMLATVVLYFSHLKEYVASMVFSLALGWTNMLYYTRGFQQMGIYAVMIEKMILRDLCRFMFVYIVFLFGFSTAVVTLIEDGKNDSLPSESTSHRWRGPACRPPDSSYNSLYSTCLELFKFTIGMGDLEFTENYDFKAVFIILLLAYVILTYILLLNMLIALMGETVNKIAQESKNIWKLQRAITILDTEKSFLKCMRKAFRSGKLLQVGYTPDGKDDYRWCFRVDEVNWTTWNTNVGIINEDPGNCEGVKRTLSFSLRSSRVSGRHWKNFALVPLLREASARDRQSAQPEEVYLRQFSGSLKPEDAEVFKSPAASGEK
assayMetric: pIC50
Answers are plain numbers, as −log10 of the molar value.

Recorded pIC50 of COc1cc(O)cc(/C=C/c2ccccc2)c1 [PINOSYLVIN METHYL ETHER] , please.
4.63

Numbers sourced from ChEMBL document CHEMBL3751759.
